The measured values listed here are drawn from patent USRE50631.

# target_under_test: human receptor tyrosine kinase like orphan receptor 1 (ROR1) (human, UniProt Q01973 30-937)
# Sequence (Q01973 30-937): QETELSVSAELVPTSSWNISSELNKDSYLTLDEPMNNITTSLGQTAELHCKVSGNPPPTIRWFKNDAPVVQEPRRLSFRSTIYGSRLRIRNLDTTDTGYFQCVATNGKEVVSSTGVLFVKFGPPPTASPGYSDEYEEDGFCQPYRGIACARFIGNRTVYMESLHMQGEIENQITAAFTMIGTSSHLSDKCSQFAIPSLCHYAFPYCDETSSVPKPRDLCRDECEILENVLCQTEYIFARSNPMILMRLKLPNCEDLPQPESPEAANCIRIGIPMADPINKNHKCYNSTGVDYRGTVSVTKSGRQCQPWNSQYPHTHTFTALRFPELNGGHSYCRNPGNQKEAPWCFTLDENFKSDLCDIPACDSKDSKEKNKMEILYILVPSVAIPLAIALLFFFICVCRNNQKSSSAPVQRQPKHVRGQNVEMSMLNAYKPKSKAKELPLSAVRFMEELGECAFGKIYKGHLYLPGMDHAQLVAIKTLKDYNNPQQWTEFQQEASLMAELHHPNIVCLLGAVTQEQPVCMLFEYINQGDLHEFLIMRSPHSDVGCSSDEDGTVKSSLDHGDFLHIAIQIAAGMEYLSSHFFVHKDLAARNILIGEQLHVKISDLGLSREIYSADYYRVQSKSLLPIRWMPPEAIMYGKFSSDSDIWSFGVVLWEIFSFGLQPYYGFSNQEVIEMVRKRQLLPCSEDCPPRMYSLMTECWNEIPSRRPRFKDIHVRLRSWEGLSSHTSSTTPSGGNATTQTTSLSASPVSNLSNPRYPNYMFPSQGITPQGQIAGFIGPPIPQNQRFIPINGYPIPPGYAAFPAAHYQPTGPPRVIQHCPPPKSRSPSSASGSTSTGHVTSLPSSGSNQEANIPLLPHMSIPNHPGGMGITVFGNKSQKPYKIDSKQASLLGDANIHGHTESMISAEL
# method_summary: cell-based or functional assay
Form field: IC50, cell viability (CellTiter-Glo, 72 h), DOHH2 cells (one value per entry).
measurement_label: IC50, cell viability (CellTiter-Glo, 72 h), DOHH2 cells (nM)

| binder | relation_operator | recorded_value |
| --- | --- | --- |
| ADC-C (antibody, human IgG1, kappa, V domains shown, MAL-VC-PAB-DM1 bonded via cysteine residues of the antibody (chain and positions not stated)) VH: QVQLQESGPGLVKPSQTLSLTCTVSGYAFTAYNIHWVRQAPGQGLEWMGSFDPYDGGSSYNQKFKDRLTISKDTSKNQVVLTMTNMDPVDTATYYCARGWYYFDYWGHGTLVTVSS VL: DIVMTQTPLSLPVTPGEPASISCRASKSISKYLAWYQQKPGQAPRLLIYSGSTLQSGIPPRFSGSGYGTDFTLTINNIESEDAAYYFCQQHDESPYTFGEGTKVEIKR | > | 1000 |
| ADC-A (antibody, human IgG1, kappa, V domains shown, MC-VC-PAB-MMAE bonded via cysteine residues of the antibody (chain and positions not stated); MC-VC-PAB-MMAE bonded via cysteine residues of the antibody (chain and positions not stated); DAR 3.89 to 5.09, Antibody-drug conjugate of Ab1; also called Ab1-MC-VC-PAB-MMAE) VH: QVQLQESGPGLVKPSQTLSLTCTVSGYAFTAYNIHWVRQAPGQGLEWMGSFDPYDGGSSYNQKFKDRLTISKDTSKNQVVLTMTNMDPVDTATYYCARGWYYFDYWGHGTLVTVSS VL: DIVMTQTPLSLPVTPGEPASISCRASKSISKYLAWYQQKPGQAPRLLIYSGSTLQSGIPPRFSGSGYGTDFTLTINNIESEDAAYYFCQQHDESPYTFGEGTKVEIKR | = | 129 |
| ADC-F (antibody, human IgG1, kappa, V domains shown, SC-VC-PAB-DM1 bonded via lysine residues of the antibody (chain and positions not stated)) VH: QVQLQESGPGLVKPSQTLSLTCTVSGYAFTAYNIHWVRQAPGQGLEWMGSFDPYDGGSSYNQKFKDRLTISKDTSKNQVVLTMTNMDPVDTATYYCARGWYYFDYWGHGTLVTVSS VL: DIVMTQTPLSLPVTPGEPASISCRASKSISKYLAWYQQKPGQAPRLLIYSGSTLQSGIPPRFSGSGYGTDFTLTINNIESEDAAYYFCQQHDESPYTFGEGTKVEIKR | > | 1000 |
| ADC-E (antibody, human IgG1, kappa, V domains shown, SC-VC-PAB-MMAE bonded via lysine residues of the antibody (chain and positions not stated)) VH: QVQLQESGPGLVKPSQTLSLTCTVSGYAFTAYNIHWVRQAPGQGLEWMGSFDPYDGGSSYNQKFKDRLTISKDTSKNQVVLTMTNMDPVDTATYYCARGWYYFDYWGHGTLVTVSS VL: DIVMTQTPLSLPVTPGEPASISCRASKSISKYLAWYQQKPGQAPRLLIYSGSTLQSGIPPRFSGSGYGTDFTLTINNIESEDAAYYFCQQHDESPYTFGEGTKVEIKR | = | 89.6 |
